# TEST_SYSTEM: EGFR L858R mutant type (Homo sapiens (Human), UniProt P00533, L858R)
# Sequence (P00533 25-1210 L858R): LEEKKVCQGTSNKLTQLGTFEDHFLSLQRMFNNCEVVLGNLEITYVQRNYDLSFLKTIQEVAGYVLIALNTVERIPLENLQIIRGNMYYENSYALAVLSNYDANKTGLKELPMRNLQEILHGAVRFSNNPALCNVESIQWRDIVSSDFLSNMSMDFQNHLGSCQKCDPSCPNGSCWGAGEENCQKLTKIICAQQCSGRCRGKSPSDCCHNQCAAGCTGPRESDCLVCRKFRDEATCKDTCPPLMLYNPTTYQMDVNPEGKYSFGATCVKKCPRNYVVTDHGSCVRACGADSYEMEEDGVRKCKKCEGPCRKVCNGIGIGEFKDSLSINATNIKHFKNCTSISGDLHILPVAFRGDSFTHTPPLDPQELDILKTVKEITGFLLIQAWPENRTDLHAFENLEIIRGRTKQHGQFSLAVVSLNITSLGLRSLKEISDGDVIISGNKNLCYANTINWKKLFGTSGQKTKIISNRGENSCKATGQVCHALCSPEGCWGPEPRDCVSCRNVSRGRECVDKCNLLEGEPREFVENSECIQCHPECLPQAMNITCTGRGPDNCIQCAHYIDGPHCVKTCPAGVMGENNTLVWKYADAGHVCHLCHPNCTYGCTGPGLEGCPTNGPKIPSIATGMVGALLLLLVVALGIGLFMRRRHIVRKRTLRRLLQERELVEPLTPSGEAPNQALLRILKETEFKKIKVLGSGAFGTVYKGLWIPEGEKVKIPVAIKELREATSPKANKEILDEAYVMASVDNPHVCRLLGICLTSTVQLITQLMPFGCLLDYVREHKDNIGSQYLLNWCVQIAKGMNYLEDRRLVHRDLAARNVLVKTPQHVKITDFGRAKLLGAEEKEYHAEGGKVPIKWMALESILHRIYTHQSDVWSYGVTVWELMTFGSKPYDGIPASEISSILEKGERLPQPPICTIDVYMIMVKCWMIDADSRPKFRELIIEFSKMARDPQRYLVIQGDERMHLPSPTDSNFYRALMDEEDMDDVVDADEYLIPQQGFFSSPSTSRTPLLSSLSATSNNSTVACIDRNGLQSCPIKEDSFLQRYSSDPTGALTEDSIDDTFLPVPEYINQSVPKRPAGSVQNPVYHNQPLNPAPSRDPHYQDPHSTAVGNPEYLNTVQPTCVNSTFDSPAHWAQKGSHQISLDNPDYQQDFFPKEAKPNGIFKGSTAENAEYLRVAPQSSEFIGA
# MEASUREMENT_NOTES: Kinase inhibitory activity, isotopic labeling (γ-33P-ATP)
# Assay type: biochemical
# CONDITION_SUMMARY: ATP 200 μM (Km)
// values below are reported log10 of IC50
REPORTED_PROPERTY: log10 of IC50 (log10 of the value in µM)

smiles=CC(C)n1c(Nc2ccccc2)nc2cnc(Nc3ccc(N4CCN(C)CC4)cc3)nc21 value_observed=-2.30
smiles=CN1CCN(c2ccc(Nc3ncc4nc(Nc5ccccc5)n(C5CC5)c4n3)cc2)CC1 value_observed=-2.70
smiles=C#Cc1cccc(Nc2nc3cnc(Nc4ccc(N5CCN(C)CC5)cc4)nc3n2C(C)C)c1 value_observed=-2.52
smiles=CN1CCN(c2ccc(Nc3ncc4nc(Nc5ccccc5)[nH]c4n3)cc2)CC1 value_observed=-2.30
smiles=CC(C)n1c(Nc2ccccc2)nc2cnc(Nc3ccc(C(=O)NC4CCN(C)CC4)cc3)nc21 value_observed=-3.40
smiles=COc1ccc(Nc2nc3cnc(Nc4ccc(N5CCN(C)CC5)cc4)nc3n2C(C)C)cc1 value_observed=-2.30
smiles=CC(C)n1c(Nc2cccc(Br)c2)nc2cnc(Nc3ccc(N4CCN(C)CC4)cc3)nc21 value_observed=-2.40
smiles=CC(C)n1c(Nc2ccc(F)c(Cl)c2)nc2cnc(Nc3ccc(C(=O)NN4CCN(C)CC4)cc3)nc21 value_observed=-3.00
smiles=CC(C)n1c(Nc2ccc(C(F)(F)F)cc2)nc2cnc(Nc3ccc(N4CCN(C)CC4)cc3)nc21 value_observed=-2.30
smiles=CC(C)n1c(Nc2ccc(F)c(Cl)c2)nc2cnc(Nc3ccc(N4CCN(C)CC4)cc3)nc21 value_observed=-2.52
smiles=CC(C)n1c(Nc2ccccc2)nc2cnc(Nc3ccc(C(=O)NN4CCN(C)CC4)cc3)nc21 value_observed=-2.10
smiles=CC(C)n1c(Nc2ccc(C(=O)Nc3cccc(F)c3)cc2)nc2cnc(Nc3ccc(N4CCN(C)CC4)cc3)nc21 value_observed=-2.00
smiles=CC(C)n1c(Nc2cccc(C(F)(F)F)c2)nc2cnc(Nc3ccc(N4CCN(C)CC4)cc3)nc21 value_observed=-3.00
smiles=CC(C)n1c(Nc2cccnc2)nc2cnc(Nc3ccc(N4CCN(C)CC4)cc3)nc21 value_observed=-2.40
smiles=CN1CCN(c2ccc(Nc3ncc4nc(Nc5ccccc5)n(C)c4n3)cc2)CC1 value_observed=-2.52
smiles=CC(C)n1c(Nc2ccc(Br)cc2)nc2cnc(Nc3ccc(N4CCN(C)CC4)cc3)nc21 value_observed=-3.00
